Biological target: Solute carrier family 12 member 5 (Homo sapiens) (UniProt Q9H2X9)
Sequence (Q9H2X9 whole entry, looked up): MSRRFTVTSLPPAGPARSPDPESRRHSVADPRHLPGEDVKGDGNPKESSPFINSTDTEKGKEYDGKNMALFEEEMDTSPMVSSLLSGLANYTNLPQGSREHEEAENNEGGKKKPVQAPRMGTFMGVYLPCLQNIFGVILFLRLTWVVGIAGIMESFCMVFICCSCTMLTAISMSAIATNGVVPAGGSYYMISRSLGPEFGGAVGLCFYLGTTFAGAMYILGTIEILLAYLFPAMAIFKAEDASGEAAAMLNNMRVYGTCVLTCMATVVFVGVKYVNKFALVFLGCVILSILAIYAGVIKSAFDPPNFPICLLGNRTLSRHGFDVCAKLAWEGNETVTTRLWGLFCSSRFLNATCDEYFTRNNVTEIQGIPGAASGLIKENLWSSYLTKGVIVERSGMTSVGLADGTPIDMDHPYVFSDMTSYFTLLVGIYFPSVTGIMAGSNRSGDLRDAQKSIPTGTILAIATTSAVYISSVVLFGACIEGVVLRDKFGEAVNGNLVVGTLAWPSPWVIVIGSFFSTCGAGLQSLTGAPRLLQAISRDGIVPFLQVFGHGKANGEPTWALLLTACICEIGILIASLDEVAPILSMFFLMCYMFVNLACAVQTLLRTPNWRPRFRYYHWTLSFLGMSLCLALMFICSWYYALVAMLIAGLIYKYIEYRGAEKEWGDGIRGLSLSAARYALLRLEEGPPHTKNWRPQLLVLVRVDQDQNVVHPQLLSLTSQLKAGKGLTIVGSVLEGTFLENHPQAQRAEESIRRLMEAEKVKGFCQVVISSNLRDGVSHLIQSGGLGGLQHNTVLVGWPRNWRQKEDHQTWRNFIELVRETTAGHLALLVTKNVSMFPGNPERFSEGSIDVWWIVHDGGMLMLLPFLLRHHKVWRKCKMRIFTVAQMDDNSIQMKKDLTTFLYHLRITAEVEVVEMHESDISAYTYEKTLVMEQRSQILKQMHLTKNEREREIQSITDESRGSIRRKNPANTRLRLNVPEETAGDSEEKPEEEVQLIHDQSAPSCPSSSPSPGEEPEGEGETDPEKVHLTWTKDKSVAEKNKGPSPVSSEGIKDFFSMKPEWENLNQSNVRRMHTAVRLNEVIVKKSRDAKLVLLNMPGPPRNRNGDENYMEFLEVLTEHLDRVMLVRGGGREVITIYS
Assay: KCC2 modulators without ouabain present, confirmation, cell-based, HEK293 KCC2, thallium flux, FluoZin2, secondary assay 2 (AID 1715)
Settings: HEK293-KCC2, thallium flux FluoZin2 fluorescence; at 10 µM; actives lie on both sides; F/F0 rise rate, 10–20 s post-thallium
This is one part of the list. Results filed as inconclusive are left out. Calls of active or inactive are those of the source.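 Rule for the calls: active = thallium flux slope more than 3 SD above or below the plate's solvent-only control mean, mostly below; inconclusive = the two repeat wells disagreed; inactive = no significant shift from solvent-only controls.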
Give your call using only these classes: Y = active, N = inactive

Problem: What is the recorded call for this compound in the test? O=c1oc2ccccc2cc1-c1cn(-c2ccccc2)c(=S)[nH]1
Solution: N

Problem: Which outcome did this test record for the compound Cn1c(CCCOc2ccc(Cl)cc2Cl)n[nH]c1=S ?
Solution: Y

Problem: Hi, sorry to bother you, what did the test record for O=C(CN(c1cccc(Cl)c1)S(=O)(=O)c1ccccc1)NN=C1CCCC1 ?
Solution: N

Problem: I would be grateful if you could indicate the recorded call for COc1ccc2[nH]c(=S)cc(C)c2c1 .
Solution: N

Problem: What classification did Cc1sc2ncnc(Sc3nc4ccccc4s3)c2c1C end up with in this test?
Solution: N

Problem: Look up the recorded call for Cc1cccc(-n2c(SCC(N)=O)nc3c(c2=O)C2(CCCCC2)Cc2ccccc2-3)c1 in this test.
Solution: N

Problem: Give the logged outcome of this assay for the following compound: COc1ccccc1/C=C/C=N/n1c(-c2ccc(Cl)cc2Cl)n[nH]c1=S
Solution: N

Problem: Entry CCc1cc(-c2n[nH]c(=S)n2CC(C)C)cs1 : call = ?
Solution: N

Problem: Called result for O=C(CSc1cccc2cccnc12)N/N=C/c1cccnc1
Solution: N

Problem: Kindly provide the recorded test outcome for the following compound: COc1ccc(-c2nc(CS(=O)CC(=O)N3CCc4ccccc4C3)c(C)o2)cc1 (configuration not stated)
Solution: Y

Problem: Hi, sorry to bother you, what did the test record for CN1c2ccccc2-c2nc3ccccc3n2C1c1ccco1 (configuration not stated) ?
Solution: N

Problem: Kindly provide the recorded test outcome for the following compound: CCc1c(SCCC(=O)O)nc2ccccc2c1C
Solution: N

Measured values drawn from PubChem BioAssay for this set.
